We begin with a simple list: items and their reported kcat.
# Measured on: recombinant human GzmB (Homo sapiens)
# Construct: For active GzmB vs pro-GzmB, p < 0.0001
# Assay notes: Kinetic measurements (Michaelis-Menten) with recombinant hGzmB
# Assay type: biochemical
# Experimental conditions: Supplementary Table 4, recombinant human GzmB
Where no end group is shown, it is not given here.

| Substance | kcat |
| --- | --- |
| IEPDSL [H3, FRET hexapeptide IEPDSL] | 23.6 s⁻¹ |
| IEPDAL [H5, FRET hexapeptide IEPDAL with BODIPY-FL fluorophore at the N-terminal end and Dabcyl quencher] | 117 s⁻¹ |
| IEPDWL [H4, FRET hexapeptide IEPDWL] | 28.2 s⁻¹ |
| IEPDSG [H2, FRET hexapeptide IEPDSG] | 11.2 s⁻¹ |

---

# System: mKate-E0771 cells
# Assay notes: MTT cell viability assay
# Type: cell-based, mouse
# Experimental conditions: H5 6.3 (head prints mM), 1 h, 37 °C; Data 5
Where no end group is shown, it is not given here.
Recorded metric: Cell viability (MTT), normalized to untreated cells (%)

| Substance | Measurement |
| --- | --- |
| IEPDAL [H5, FRET hexapeptide IEPDAL with BODIPY-FL fluorophore at the N-terminal end and Dabcyl quencher] | 89 |

---

# Tested on: mKate-E0771 cells
# Assay notes: MTT cell viability assay
# Assay type: cell-based, mouse
# Experimental conditions: H5 3.1 (head prints mM), 1 h, 37 °C; Data 3
Where no end group is shown, it is not given here.
Recorded metric: Cell viability (MTT), normalized to untreated cells (%)

| Substance | Measurement |
| --- | --- |
| IEPDAL [H5, FRET hexapeptide IEPDAL with BODIPY-FL fluorophore at the N-terminal end and Dabcyl quencher] | 89 |

---

# Measured on: human GzmB (hGzmB) (Homo sapiens, UniProt P10144)
# Construct: For active GzmB vs pro-GzmB, p < 0.0001
# Sequence (P10144 21-247): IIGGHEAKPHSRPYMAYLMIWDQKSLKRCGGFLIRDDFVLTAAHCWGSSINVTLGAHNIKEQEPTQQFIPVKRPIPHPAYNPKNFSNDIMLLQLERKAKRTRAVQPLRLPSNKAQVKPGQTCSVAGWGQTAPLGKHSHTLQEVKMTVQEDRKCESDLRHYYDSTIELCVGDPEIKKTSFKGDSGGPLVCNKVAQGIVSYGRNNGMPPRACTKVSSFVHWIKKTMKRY
# Assay notes: Fluorescence assay with recombinant hGzmB (fluorogenic response, time course)
# Type: biochemical
# Experimental conditions: probe 25 μM, hGzmB 20 nM; Data 3
Where no end group is shown, it is not given here.
Doc: threshold 60 (exclusive). Items with S/N ratios beneath it return rule met; others return rule not met.

| Substance | Classification |
| --- | --- |
| IEPDSL [H3, FRET hexapeptide IEPDSL] | rule not met |
| IEPDWL [H4, FRET hexapeptide IEPDWL] | rule not met |
| IEPDSG [H2, FRET hexapeptide IEPDSG] | rule not met |
| IEPDAG [H1, FRET hexapeptide IEPDAG] | rule met |
| IEPDWR [H6, negative control FRET hexapeptide IEPDWR] | rule met |
| IEPDRL [H7, negative control FRET hexapeptide IEPDRL] | rule met |

---

# Tested on: mKate-E0771 cells
# Assay notes: MTT cell viability assay
# Type: cell-based, mouse
# Experimental conditions: H5 6.3 (head prints mM), 1 h, 37 °C; Data 6
# Description: Supplementary Figure 9. Cell viability assays in mKate-E0771 cancer cells. mKate-E0771 cells were plated in 96-well plates (50,000 cells well-1) and incubated at the […] Cell viability was determined using a commercially available MTT kit (Invitrogen) with values normalized to untreated cells. Data presented as mean values±SEM (2 independent experiments with 3 replicates for each). P values were obtained from ONE-ANOVA tests with multiple comparisons. Source data provided as a Source Data file. […]
Where no end group is shown, it is not given here.
Recorded metric: Cell viability (MTT), normalized to untreated cells (%)

| Substance | Unit annotation | Measurement |
| --- | --- | --- |
| IEPDAL [H5, FRET hexapeptide IEPDAL with BODIPY-FL fluorophore at the N-terminal end and Dabcyl quencher] | % | 90 |
